# Test system: T24
# measurementDescription: Cell viability analysis, bladder cancer T24
# Type: cell-based, human
// values below are reported The results of antibiotic drug inhibiting cancer cell lines (cell viability analysis), T24
Please give the numeric answer without any surrounding text.

compound="Cc1cc(C#N)cc(C)c1Oc1nc(Nc2ccc(C#N)cc2)nc(N)c1Br [Etravirine (TMC125)]" quantitativeresult=56.73
compound="Cc1cc(C2CCCCC2)n(O)c(=O)c1.NCCO [Ciclopirox ethanolamine]" quantitativeresult=41.2

Recorded result, CC(=O)Oc1ccccc1C(=O)Nc1ncc([N+](=O)[O-])s1 [Nitazoxanide (Alinia, Annita)] , The results of antibiotic drug inhibiting cancer cell lines (cell viability analysis), T24: 76.47

Field The results of antibiotic drug inhibiting cancer cell lines (cell viability analysis), T24 (entry Cl.c1ccc([C@H]2CN3CCSC3=N2)cc1 [Levamisole Hydrochloride (Ergamisol)] ) reads 92.87

====

# System: PC3 (p53−) (Prostate Adenocarcinoma)
# measurementDescription: Cell viability analysis, prostate cancer PC3
# Assay type: cell-based, human
# testParameters: Homo sapiens, 72 h, read-out: cell viability (survival rate), PC3, drug 10 μM, 72 hours, WST-1, OD450 nm
measurementLabel: viability at 10 µM
In your response, put the unit directly after the numeric value.

Recorded results for 6 compounds are shown here.
compound="Nc1ccc(S(N)(=O)=O)cc1 [Sulfanilamide]" measurementlabel="viability at 10 µM" result=111%
compound="Nc1ccn([C@@H]2CS[C@H](CO)O2)c(=O)n1 [Lamivudine (Epivir), Lamivudine]" measurementlabel="viability at 10 µM" result=110%
compound=COC(=O)Nc1nc2ccc(Sc3ccccc3)cc2[nH]1 measurementlabel="viability at 10 µM" result=42%
compound=C[C@@H]1CC[C@H]2[C@@H](C)C(=O)O[C@@H]3O[C@@]4(C)CC[C@@H]1[C@]32OO4 measurementlabel="viability at 10 µM" result=92.5%
compound="O[C@@H]1CO[C@H]2[C@@H]1OC[C@@H]2O [Isosorbide]" measurementlabel="viability at 10 µM" result=94.3%
compound=COC(=O)C1=CO[C@@H](O)[C@@H]2C(CO)=CC[C@H]12 measurementlabel="viability at 10 µM" result=71.6%

Record c1ccc(-c2ccc(C(c3ccccc3)n3ccnc3)cc2)cc1 (stereo not shown) / PC3 (p53−) (Prostate Adenocarcinoma), viability at 10 µM recorded as 78.2%

====

# viability at 10 µM per record follows
# Test system: A375 (Amelanotic Melanoma)
# measurementDescription: Cell viability analysis, skin cancer A375
# Assay type: cell-based, human
# testParameters: Homo sapiens, A-375, 72 h, read-out: cell viability (survival rate), A375, drug 10 μM, 72 hours, WST-1, OD450 nm
Structures can show the parent of a compound that is named as a salt.
Provide only the numeric value, understood in %.

These recorded examples may help you get a feel for the data.
compound="Clc1ccc(COC(Cn2ccnc2)c2ccc(Cl)cc2Cl)c(Cl)c1 (centres unmarked) [Miconazole nitrate]" assayedsystem="A375 (Amelanotic Melanoma)" measurementlabel="viability at 10 µM" measurementunit=% quantitativeresult=31.5
compound="CC1(C)S[C@@H]2[C@H](NC(=O)Cc3ccccc3)C(=O)N2[C@H]1C(=O)O [Benzylpenicillin sodium]" assayedsystem="A375 (Amelanotic Melanoma)" measurementlabel="viability at 10 µM" measurementunit=% quantitativeresult=51.7
compound=COC(=O)C1=CO[C@@H](O)[C@@H]2C(CO)=CC[C@H]12 assayedsystem="A375 (Amelanotic Melanoma)" measurementlabel="viability at 10 µM" measurementunit=% quantitativeresult=78
compound=COc1cc(Cc2cnc(N)nc2N)cc(OC)c1OC assayedsystem="A375 (Amelanotic Melanoma)" measurementlabel="viability at 10 µM" measurementunit=% quantitativeresult=83.6
compound="CC(=O)OCC1=C(C(=O)O)N2C(=O)[C@@H](NC(=O)CSc3ccncc3)[C@H]2SC1 [Cephapirin Sodium]" assayedsystem="A375 (Amelanotic Melanoma)" measurementlabel="viability at 10 µM" measurementunit=% quantitativeresult=50.2

Documented viability at 10 µM of C[C@H]1COc2c(N3CCN(C)CC3)c(F)cc3c(=O)c(C(=O)O)cn1c23 : 39.3

Data point: O=c1[nH]c(=O)n([C@H]2C[C@H](O)[C@@H](CO)O2)cc1C(F)(F)F ; viability at 10 µM = 48.6

Nc1nc2c(ncn2COCCO)c(=O)[nH]1 yielded viability at 10 µM of 112

For CC(=O)Oc1cc(C(F)(F)F)ccc1C(=O)O the compound record lists viability at 10 µM as 95.9

Field viability at 10 µM (entry CCn1cc(C(=O)O)c(=O)c2cnc(N3CCCC3)nc21 ) reads 86.7

Short answer for CC1(C)S[C@@H]2[C@H](NC(=O)C(C(=O)O)c3ccccc3)C(=O)N2[C@H]1C(=O)O (some centres unmarked) [Carbenicillin disodium] : viability at 10 µM was 70.2

# viability at 10 µM of CN(C)[C@@H]1C(O)=C(C(N)=O)C(=O)[C@@]2(O)C(O)=C3C(=O)c4c(O)ccc(Cl)c4[C@@](C)(O)[C@H]3C[C@@H]12 [Chlortetracycline HCl] = 49.2

viability at 10 µM reported for this compound Nc1ccn([C@@H]2CS[C@H](CO)O2)c(=O)n1 [Lamivudine (Epivir), Lamivudine] : 95.8

Short answer for [H]/N=C(/N)N[C@H]1[C@H](O)[C@@H](O)[C@H](O[C@@H]2O[C@@H](C)[C@](O)(C=O)[C@H]2O[C@@H]2O[C@@H](CO)[C@H](O)[C@@H](O)[C@@H]2NC)[C@@H](N/C(N)=N\[H])[C@@H]1O [Streptomycin sulfate] : viability at 10 µM was 77.5
